# systemUnderTest: MDM2 (Homo sapiens, UniProt Q00987)
# Sequence (Q00987 whole entry): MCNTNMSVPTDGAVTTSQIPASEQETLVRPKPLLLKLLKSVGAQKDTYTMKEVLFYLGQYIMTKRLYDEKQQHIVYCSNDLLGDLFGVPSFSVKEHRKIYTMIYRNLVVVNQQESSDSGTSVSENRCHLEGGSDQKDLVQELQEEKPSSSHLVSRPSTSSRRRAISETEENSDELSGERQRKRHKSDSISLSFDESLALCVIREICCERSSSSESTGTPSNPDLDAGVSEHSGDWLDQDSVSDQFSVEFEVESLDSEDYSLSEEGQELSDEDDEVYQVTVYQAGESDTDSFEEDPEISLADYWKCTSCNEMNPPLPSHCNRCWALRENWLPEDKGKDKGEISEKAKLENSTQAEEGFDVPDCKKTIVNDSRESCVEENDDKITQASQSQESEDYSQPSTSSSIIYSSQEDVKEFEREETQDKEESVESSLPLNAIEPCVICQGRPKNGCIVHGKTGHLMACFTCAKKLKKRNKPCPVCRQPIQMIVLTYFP
# assayName: MDM2 binding screen: displacement of fluorescent p53 peptide probe FP53 (fluorescence polarization)
# protocolConditions: Acid 14; initial screen; crude macrocycle reactions
Label 1.0 when fraction fluorescent probe displaced, Screen is strictly below 0.1; otherwise label 0.0.

O=C1CCSSCCNC(=O)C2(CCN(C(=O)c3ccc(Cl)s3)CC2)NC(=O)c2cccc(c2)CNC(=O)C(Cc2ccccc2)N1 (stereo not drawn) : 0.0

Consider O=C1CCSSCCNC(=O)C2CC(NC(=O)c3ccc(Cl)s3)CN2C(=O)C2CCCN(C2)C(=O)C(Cc2c[nH]c3ccccc23)N1 (stereo not drawn) . Does its fraction fluorescent probe displaced, Screen lie strictly below 0.1?
0.0

Just wondering, is fraction fluorescent probe displaced, Screen of O=C1CCNC(=O)C(Cc2c[nH]c3ccccc23)NC(=O)C2CC(NC(=O)c3ccc(Cl)s3)CN2C(=O)CCSSCCN1 (stereo not drawn) below 0.1?
0.0
